Target: UniProt:P00747
Sequence (P00747 97-580 limits assumed): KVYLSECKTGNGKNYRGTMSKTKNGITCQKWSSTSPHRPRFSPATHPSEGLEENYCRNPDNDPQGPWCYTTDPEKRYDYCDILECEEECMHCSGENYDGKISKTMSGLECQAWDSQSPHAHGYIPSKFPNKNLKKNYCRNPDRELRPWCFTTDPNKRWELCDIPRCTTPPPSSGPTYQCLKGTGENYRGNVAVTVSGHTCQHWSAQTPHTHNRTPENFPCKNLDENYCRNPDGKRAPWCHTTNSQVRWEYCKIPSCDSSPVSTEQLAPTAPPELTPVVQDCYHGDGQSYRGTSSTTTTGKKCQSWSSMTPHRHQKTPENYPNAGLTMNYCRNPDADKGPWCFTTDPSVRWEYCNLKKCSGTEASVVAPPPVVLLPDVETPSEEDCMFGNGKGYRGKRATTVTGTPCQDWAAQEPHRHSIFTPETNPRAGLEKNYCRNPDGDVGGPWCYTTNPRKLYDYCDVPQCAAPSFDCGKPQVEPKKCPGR
Sequence (P00747 581-810 limits assumed): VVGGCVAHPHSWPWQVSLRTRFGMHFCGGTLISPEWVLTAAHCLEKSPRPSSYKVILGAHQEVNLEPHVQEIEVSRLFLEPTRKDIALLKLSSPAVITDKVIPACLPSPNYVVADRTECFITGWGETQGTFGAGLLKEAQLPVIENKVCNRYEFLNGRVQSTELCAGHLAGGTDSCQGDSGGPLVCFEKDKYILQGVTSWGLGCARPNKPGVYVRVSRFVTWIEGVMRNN
Test: Compound was evaluated for its inhibitory potency against plasmin
pKi: −log10 of the molar value.
Catalogue of pKi readings, one per entry.

test-smiles | study-target | pKi
N=C(N)c1ccc(CNC(=O)N2CCN(C(=O)O[C@H]3CCC[C@@H](OC(=O)N4CCN(C(=O)NCc5ccc(C(=N)N)cc5)CC4)CCC3)CC2)cc1 | UniProt:P00747 | 3.87
N=C(N)Nc1ccc(CNC(=O)N2CCN(C(=O)CCCCCCC(=O)N3CCN(C(=O)NCc4ccc(NC(=N)N)cc4)CC3)CC2)cc1 | UniProt:P00747 | < 3.00
N=C(N)Nc1ccc(CNC(=O)N2CCN(C(=O)O[C@H]3CCC[C@@H](OC(=O)N4CCN(C(=O)CCc5ccc(N)nc5)CC4)CCC3)CC2)cc1 | UniProt:P00747 | < 3.00
N=C(N)Nc1ccc(CNC(=O)N2CCN(C(=O)O[C@H]3CCC[C@@H](OC(=O)N4CCN(C(=O)CCNc5ccncc5)CC4)CCC3)CC2)cc1 | UniProt:P00747 | < 3.00
NC[C@H]1CC[C@H](CNC(=O)N2CCN(C(=O)O[C@H]3CCC[C@@H](OC(=O)N4CCN(C(=O)NC[C@H]5CC[C@H](CN)CC5)CC4)CCC3)CC2)CC1 | UniProt:P00747 | < 3.00
O=C(CCCC1CCNCC1)N1CCN(C(=O)O[C@H]2CCC[C@@H](OC(=O)N3CCN(C(=O)CCCC4CCNCC4)CC3)CCC2)CC1 | UniProt:P00747 | < 3.00

---

Target: Tryptase (Homo sapiens, UniProt Q9BZJ3+Q15661+Q9NRR2)
Assay: Evaluated for its inhibitory potency against tryptase
Type: protein assay
assay-readout: log10 of Ki (log10 of the value in µM)

test-smiles | study-target | value-observed
NCCCCCNC(=O)N1CCN(C(=O)O[C@H]2CCC[C@@H](OC(=O)N3CCN(C(=O)NCCCCCN)CC3)CCC2)CC1 | Tryptase (Homo sapiens, UniProt Q9BZJ3+Q15661+Q9NRR2) | -1.96
NC[C@H]1CC[C@H](CNC(=O)N2CCN(C(=O)O[C@H]3CCC[C@@H](OC(=O)N4CCN(C(=O)NC[C@H]5CC[C@H](CN)CC5)CC4)CCC3)CC2)CC1 | Tryptase (Homo sapiens, UniProt Q9BZJ3+Q15661+Q9NRR2) | -1.80
N=C(N)Nc1ccc(CNC(=O)N2CCN(C(=O)O[C@H]3CCC[C@@H](OC(=O)N4CCN(C(=O)NC[C@H]5CC[C@H](N)CC5)CC4)CCC3)CC2)cc1 | Tryptase (Homo sapiens, UniProt Q9BZJ3+Q15661+Q9NRR2) | -3.00
NCCc1ccc(CCNC(=O)N2CCN(C(=O)O[C@H]3CCC[C@@H](OC(=O)N4CCN(C(=O)NCCc5ccc(CCN)cc5)CC4)CCC3)CC2)cc1 | Tryptase (Homo sapiens, UniProt Q9BZJ3+Q15661+Q9NRR2) | 0.00
N=C(N)Nc1ccc(CNC(=O)N2CCN(C(=O)O[C@H]3CCC[C@@H](OC(=O)N4CCN(C(=O)CCc5cnc(N)nc5)CC4)CCC3)CC2)cc1 | Tryptase (Homo sapiens, UniProt Q9BZJ3+Q15661+Q9NRR2) | 1.61
NCCc1ccc(CC(=O)N2CCN(C(=O)O[C@H]3CCC[C@@H](OC(=O)N4CCN(C(=O)Cc5ccc(CCN)cc5)CC4)CCC3)CC2)cc1 | Tryptase (Homo sapiens, UniProt Q9BZJ3+Q15661+Q9NRR2) | -2.70
CN1CCC(CCNC(=O)N2CCN(C(=O)O[C@H]3CCC[C@@H](OC(=O)N4CCN(C(=O)NCc5ccc(NC(=N)N)cc5)CC4)CCC3)CC2)CC1 | Tryptase (Homo sapiens, UniProt Q9BZJ3+Q15661+Q9NRR2) | 0.48
N=C(N)c1ccc(CC(=O)N2CCN(C(=O)O[C@H]3CCC[C@@H](OC(=O)N4CCN(C(=O)Cc5ccc(C(=N)N)cc5)CC4)CCC3)CC2)cc1 | Tryptase (Homo sapiens, UniProt Q9BZJ3+Q15661+Q9NRR2) | -3.70
N=C(N)Nc1ccc(CNC(=O)N2CCN(C(=O)O[C@H]3CCC[C@@H](OC(=O)N4CCN(C(=O)CCCCn5ccnc5)CC4)CCC3)CC2)cc1 | Tryptase (Homo sapiens, UniProt Q9BZJ3+Q15661+Q9NRR2) | 0.00
N=C(N)Nc1ccc(CNC(=O)N2CCN(C(=O)O[C@H]3CCC[C@@H](OC(=O)N4CCN(C(=O)NCCc5ccncc5)CC4)CCC3)CC2)cc1 | Tryptase (Homo sapiens, UniProt Q9BZJ3+Q15661+Q9NRR2) | -0.05
N=C(N)c1ccc(CNC(=O)N2CCN(C(=O)O[C@H]3CCC[C@@H](OC(=O)N4CCN(C(=O)NCc5ccc(C(=N)N)cc5)CC4)CCC3)CC2)cc1 | Tryptase (Homo sapiens, UniProt Q9BZJ3+Q15661+Q9NRR2) | -2.05
N=C(N)N1CCC(CNC(=O)N2CCN(C(=O)O[C@H]3CCC[C@@H](OC(=O)N4CCN(C(=O)NCC5CCN(C(=N)N)CC5)CC4)CCC3)CC2)CC1 | Tryptase (Homo sapiens, UniProt Q9BZJ3+Q15661+Q9NRR2) | -0.21
O=C(NCc1ccccc1)N1CCN(C(=O)O[C@H]2CCC[C@@H](OC(=O)N3CCN(C(=O)NCc4ccccc4)CC3)CCC2)CC1 | Tryptase (Homo sapiens, UniProt Q9BZJ3+Q15661+Q9NRR2) | 2.00

Source listed as ChEMBL document CHEMBL1132784.
